# Tested on: IKK-alpha;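 further: KINOMEscan kinase panel screen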
# Construct: gene CHUK
# RUN CONDITIONS: concentration: 1 μM, replicates: in singlicate; n = 1
OUTCOME MEASURE: %Inh (%)

molecule="Fc1cc(Cl)ccc1Nc1ccnc2cc(-c3ccc(CN4CCCCC4)o3)ccc12 [GW560116]" assay_value=0
molecule="Cc1cc(-c2ccc3c(c2)CC[C@@H](N[C@@H](C)c2ccccc2)C3)cnc1N.Cl [GW412617]" assay_value=0
molecule="CS(=O)(=O)c1ccc(-c2nc3n(c2-c2ccncc2)CCC3)cc1 [SKF-105942]" assay_value=0
molecule=Cn1ccc2ncnc(Oc3ccc(NC(=O)Nc4ccccc4)cc3)c21 assay_value=5
molecule="CN(C)CCN(C)C(=O)c1cc(-c2ccncc2)c(-c2ccc(Cl)c(O)c2)o1.Cl.Cl [SB-710397]" assay_value=44
molecule="Cc1ccccc1-n1cnc2c(N)ncnc21 [SKF-97510]" assay_value=0
molecule="COc1ccccc1CNC(=O)c1cc(C(=O)c2ccccc2C)c[nH]1 [GSK364507]" assay_value=9
molecule="O=C(Nc1n[nH]c2cc(-c3cccc(F)c3F)ccc12)C1CC1 [SB-733894]" assay_value=0
molecule=O=C(O)COc1ncnc2cc(-c3ccc4[nH]ncc4c3)sc12 assay_value=28
molecule="O=S(=O)(c1ccc(-c2ccnc3[nH]ccc23)cc1)N1CCCC1 [GSK846226]" assay_value=29
molecule="Cc1cccc(-c2cc(Nc3ccncc3)c3ccccc3n2)n1 [GSK223675]" assay_value=0
molecule=COC(=O)c1c(-c2ccccc2)c2cc(C(=O)O)ccc2c(=O)n1Cc1ccccc1 assay_value=0
molecule="Cc1c(Cn2ccn3c(=O)cc(N4CCOCC4)nc23)cccc1C(F)(F)F [GSK2289044]" assay_value=0
molecule="Cc1c(O)cccc1Nc1ccnc2ccc(C(F)(F)F)cc12.Cl [GW466413]" assay_value=8
molecule="Cc1cccc(-c2nc(Nc3cccc(C(N)=O)c3)c3ccccc3n2)n1 [GW876019]" assay_value=0
molecule="COc1ccc(Nc2nccc(-c3cccc(NC(=O)c4cc5cc(F)ccc5[nH]4)c3)n2)cc1 [GSK1229782]" assay_value=21
molecule="Cc1ccc(C(=O)Nc2ccc(Nc3ccnc4cc(-c5ccccn5)ccc34)cc2O)cc1.Cl [GW440146]" assay_value=0
molecule="CCn1c(-c2ccccn2)nc2cnccc21 [SB-736398]" assay_value=37
molecule=Fc1cccc(COc2nnc(-c3ccc4c(c3)CCO4)o2)c1 assay_value=21
molecule="O=C(Nc1ccc2c(c1)OCO2)NC1CCN(c2ccnc(Nc3ccc(F)cc3)n2)C1 (centres unmarked) [GSK1379724]" assay_value=25
molecule="Cn1cncc1-c1ccc2ncnc(Nc3ccc(OCc4ccccc4)cc3)c2c1 [GW320571]" assay_value=0
molecule=Cn1ccc2ncnc(Oc3cccc(C(=O)Nc4ccccc4)c3)c21 assay_value=22
molecule=NC(=O)c1nnc2ccccc2c1N assay_value=27

====

# System: CSNK2A2;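 further: kd values determined as follow-up on hits from a single-replicate KINOMEscan panel screen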
pKd: −log10 of the molar value.
OUTCOME MEASURE: pKd

molecule=COc1ccccc1CNC(=O)c1cc(C(=O)c2ccccc2C)c[nH]1 outcome_measure=pKd measurement_qualifier== assay_value=5.29
molecule=Fc1cc(Cl)ccc1Nc1ccnc2cc(-c3ccc(CN4CCCCC4)o3)ccc12 outcome_measure=pKd measurement_qualifier=< assay_value=5.00
molecule=Cc1cccc(-c2nc(Nc3ccc4[nH]ncc4c3)c3ccccc3n2)n1 outcome_measure=pKd measurement_qualifier== assay_value=7.38
molecule=Clc1cc(Cl)cc(Nc2ccnc(Nc3cc(Cl)cc(Cl)c3)n2)c1 outcome_measure=pKd measurement_qualifier=< assay_value=5.00

Data provenance: paper PMC5540273
